Molecular target: β-secretase (BACE) (Homo sapiens)
Construct: purchased Panvera
Sequence (P56817 46-501): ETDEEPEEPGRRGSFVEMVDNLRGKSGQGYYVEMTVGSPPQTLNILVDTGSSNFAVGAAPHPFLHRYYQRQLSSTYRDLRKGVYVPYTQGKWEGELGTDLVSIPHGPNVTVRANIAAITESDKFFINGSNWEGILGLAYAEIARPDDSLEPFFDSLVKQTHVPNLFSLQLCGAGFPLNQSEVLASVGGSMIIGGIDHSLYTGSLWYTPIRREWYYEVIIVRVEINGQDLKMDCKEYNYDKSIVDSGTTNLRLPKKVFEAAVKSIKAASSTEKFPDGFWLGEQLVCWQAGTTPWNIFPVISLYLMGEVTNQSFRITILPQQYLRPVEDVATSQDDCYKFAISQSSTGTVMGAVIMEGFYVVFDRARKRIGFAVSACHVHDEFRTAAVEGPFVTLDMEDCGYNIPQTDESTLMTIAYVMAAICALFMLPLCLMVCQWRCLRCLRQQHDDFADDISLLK
Experiment: BACE FS1 % Inhibition Assay
Assay type: biochemical
Settings: 3 μM test compound
Provide the recorded % Inhibition (FS) for the entries that follow.

> print(dat)
                          structurenotation  result
1  CC(C)(C)C(=O)Nc1cccc(CN2Cc3cc(Oc4ccccc4)ccc3N=C2N)c1    <30%
2  CC(C)CC(=O)NC[C@@H](C(C)C)N1Cc2cc(Oc3ccccc3)ccc2N=C1N    127%
3  CN(C(=O)c1cccc(CN2Cc3cc(Nc4ccc5c(c4)OCO5)ccc3N=C2N)c1)C1CCCCC1     48%

--- query ---
Provide β-secretase (BACE) (Homo sapiens) % Inhibition (FS) reading for "NC1=Nc2ccc(-c3ccccc3Cl)cc2CN1CCNC(=O)C12CC3CC(CC(C3)C1)C2" . 96%

Where do the numbers come from? From patent US8426429B2.
